Hey, just so you know, these numbers are from patent US20130324556A1.

Target: human PAR2 receptor (Homo sapiens, UniProt P55085)
Construct: expressed in transfected cells; host or cells: 1321N1 cells
Test: PAR2 antagonist activity, calcium flux FLIPR assay (trypsin challenge)
Assay type: cell-based
Details: 1321N1 cells transfected with the human PAR2 receptor; trypsin (EC50 concentration) challenge; calcium flux FLIPR; read-out: PAR2 IC50
Structures can show the parent of a compound that is named as a salt.
Assign IC50 to each entry below.

Any idea what IC50 was measured for NCc1ccc(CNC(=O)N2CCC(c3nc4ccccc4o3)CC2)cc1 ?
< 5 µM

Any idea what IC50 was measured for N=C(N)c1ccc(CNC(=O)N2CCC(Cc3cccc(O)c3)CC2)cc1 [Example 47, hydrochloride] ?
< 5 µM

Any idea what IC50 was measured for NCc1ccc(CNC(=O)N2CCC(Cc3cccc(F)c3)CC2)cc1 ?
< 5 µM

Any idea what IC50 was measured for O=C(NCc1ccc(-c2ncc[nH]2)cc1)N1CCC(Cc2ccccc2)CC1 ?
20 to 50 µM

Any idea what IC50 was measured for NCc1ccc(CNC(=O)N2CCC(Oc3ccc(F)cc3)CC2)cc1 ?
5 to 20 µM

Any idea what IC50 was measured for N=C(N)c1ccc(CNC(=O)N2CCN(Cc3ccccc3)CC2)cc1 [Example 42, dihydrochloride] ?
< 5 µM

Any idea what IC50 was measured for Nc1nc2ccc(CNC(=O)N3CCC(Cc4ccccc4)CC3)cc2[nH]1 ?
5 to 20 µM

Any idea what IC50 was measured for CN(Cc1ccc(C(=N)N)cc1)C(=O)N1CCC(Cc2ccccc2)CC1 [Example 43, hydrochloride] ?
5 to 20 µM

Any idea what IC50 was measured for NCc1ccc(CNC(=O)N2CCC(Sc3ccccc3)CC2)cc1 [Example 16, hydrochloride] ?
5 to 20 µM

Any idea what IC50 was measured for NCc1ccc(CNC(=O)N2CCC(Cc3cccnc3)CC2)cc1 ?
20 to 50 µM

Any idea what IC50 was measured for CNC(=N)c1ccc(CNC(=O)N2CCC(Cc3ccccc3)CC2)cc1 ?
20 to 50 µM

Any idea what IC50 was measured for N=C(N)Nc1ccc(CNC(=O)N2CCC(Cc3ccccc3)CC2)cc1 ?
5 to 20 µM

Any idea what IC50 was measured for NCc1ccc(CNC(=O)N2CCN(Cc3ccccc3)CC2)cc1 ?
5 to 20 µM

Any idea what IC50 was measured for O=C(NCc1ccc2c(c1)CNC2)N1CCC(Cc2ccccc2)CC1 ?
5 to 20 µM

Any idea what IC50 was measured for COc1cccc(CC2CCN(C(=O)NCc3ccc(CN)cc3)CC2)c1 ?
20 to 50 µM

Any idea what IC50 was measured for NCc1ccc(CNC(=O)N2CCC(Cc3ccccn3)CC2)cc1 ?
5 to 20 µM

Any idea what IC50 was measured for O=C(NCc1ccc2nc[nH]c2c1)N1CCC(Cc2ccccc2)C1 (stereo not shown) ?
5 to 20 µM

Any idea what IC50 was measured for O=C(NCc1ccc2nn[nH]c2c1)N1CCC(Cc2ccccc2)CC1 ?
50 to 100 µM

Any idea what IC50 was measured for NCc1ccc(CNC(=O)N2CCC(C(=O)N3CCc4ccccc43)CC2)cc1 ?
50 to 100 µM

---

Biological target: human PAR2 receptor (Homo sapiens, UniProt P55085)
Construct: expressed in transfected cells; host or cells: 1321N1 cells
Sequence (P55085 26-397): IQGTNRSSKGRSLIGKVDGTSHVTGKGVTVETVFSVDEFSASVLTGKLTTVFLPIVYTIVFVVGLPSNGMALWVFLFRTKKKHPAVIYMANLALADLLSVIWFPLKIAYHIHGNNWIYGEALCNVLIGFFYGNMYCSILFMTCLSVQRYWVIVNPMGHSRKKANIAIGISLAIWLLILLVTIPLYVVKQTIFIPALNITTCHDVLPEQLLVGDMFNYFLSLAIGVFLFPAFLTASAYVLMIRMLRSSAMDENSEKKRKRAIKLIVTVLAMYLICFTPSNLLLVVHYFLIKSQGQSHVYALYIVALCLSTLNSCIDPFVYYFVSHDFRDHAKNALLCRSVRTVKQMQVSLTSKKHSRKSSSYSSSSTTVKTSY
Assay: PAR2 antagonist activity, calcium flux FLIPR assay (trypsin challenge)
Assay type: cell-based
Conditions: 1321N1 cells transfected with the human PAR2 receptor; trypsin (EC50 concentration) challenge; calcium flux FLIPR; read-out: PAR2 IC50
pIC50: −log10 of the molar value. Where a name gives a salt, the structure may show the parent alone.
assayReadout: pIC50

Any idea what pIC50 was measured for O=C(NCc1ccc2c(c1)CNC2)N1CCC(Oc2ccc(F)cc2)CC1 [Example 66, hydrochloride] ?
4.30 to 4.70

Any idea what pIC50 was measured for NCc1ccc(CNC(=O)N2CCC(Cc3ccccc3)CC2)cc1 [Example 1] ?
4.70 to 5.30

Any idea what pIC50 was measured for NCc1ccc(CNC(=O)N2CCC(n3c(=O)[nH]c4ccccc43)CC2)cc1 [Example 33, hydrochloride] ?
4.30 to 4.70

Any idea what pIC50 was measured for NCc1ccc(CNC(=O)N2CCC(Cc3ccc(Cl)cc3)CC2)cc1 [Example 6] ?
> 5.30

Any idea what pIC50 was measured for O=C(NCc1ccc2c(c1)CNC2)N1CCC(Cc2ccncc2)CC1 [Example 65, dihydrochloride] ?
4.00 to 4.30

Any idea what pIC50 was measured for NCc1ccc(CNC(=O)N2CCC(Oc3ccccc3)CC2)cc1 [Example 11] ?
4.30 to 4.70

Any idea what pIC50 was measured for N=C(N)c1ccc(CNC(=O)N2CCC(Cc3ccccc3)CC2)cc1 [Example 36] ?
> 5.30

---

Target: human PAR2 receptor (Homo sapiens, UniProt P55085)
Construct: expressed in transfected cells; host or cells: 1321N1 cells
Assay: PAR2 antagonist activity, calcium flux FLIPR assay (trypsin challenge)
Assay type: cell-based
pIC50: −log10 of the molar value. Counter-ions that a name gives are not always drawn.
assayReadout: pIC50

Any idea what pIC50 was measured for O=C(NCc1ccc2nc[nH]c2c1)N1CCC(Nc2ccc(F)cc2)CC1 [Example 58] ?
4.30 to 4.70

Any idea what pIC50 was measured for NCc1ccc(CNC(=O)N2CCC(Nc3ccccc3Cl)CC2)cc1 [Example 17, dihydrochloride] ?
> 5.30

---

Assign pIC50 to each entry below.
Molecular target: human PAR2 receptor (Homo sapiens)
Construct: expressed in transfected cells; host or cells: 1321N1 cells
Assay: PAR2 antagonist activity, calcium flux FLIPR assay (trypsin challenge)
Assay type: cell-based
Conditions: 1321N1 cells transfected with the human PAR2 receptor; trypsin (EC50 concentration) challenge; calcium flux FLIPR; read-out: PAR2 IC50
pIC50: −log10 of the molar value. Counter-ions that a name gives are not always drawn.

Any idea what pIC50 was measured for N=C(N)c1ccc(CNC(=O)N2CCC(c3ccccc3)C2)cc1 (stereo not shown) [Example 41, hydrochloride] ?
4.70 to 5.30

Any idea what pIC50 was measured for COc1ccc(CC2CCN(C(=O)NCc3ccc4nc[nH]c4c3)CC2)cc1 [Example 56] ?
4.30 to 4.70

Any idea what pIC50 was measured for O=C(NCc1cc2cnccc2[nH]1)N1CCC(Cc2ccccc2)CC1 [Example 53] ?
4.30 to 4.70

Any idea what pIC50 was measured for NCc1ccc(CNC(=O)N2CCN(c3ccccc3)CC2)cc1 [Example 27, dihydrochloride] ?
4.30 to 4.70

Any idea what pIC50 was measured for NCc1ccc(CNC(=O)N2CCC(c3ccccc3)C2)cc1 (stereo not shown) [Example 29] ?
4.00 to 4.30

Any idea what pIC50 was measured for NCc1cccc(CNC(=O)N2CCC(Cc3ccccc3)CC2)c1 [Example 67] ?
4.00 to 4.30

Any idea what pIC50 was measured for O=C(NCc1ccc2nc[nH]c2c1)N1CCC(Cc2ccncc2)CC1 [Example 57] ?
4.30 to 4.70

Any idea what pIC50 was measured for Cn1cnc2ccc(CNC(=O)N3CCC(Cc4ccccc4)CC3)cc21 [Example 54] ?
4.00 to 4.30

Any idea what pIC50 was measured for N=C(N)c1ccc(CNC(=O)N2CCC(Cc3ccncc3)CC2)cc1 [Example 40] ?
> 5.30

Any idea what pIC50 was measured for NCc1ccc(CNC(=O)N2CCC(C(O)c3ccc(F)cc3)CC2)cc1 (stereo not shown) [Example 19] ?
4.70 to 5.30

---

Target: human PAR2 receptor (Homo sapiens, UniProt P55085)
Construct: expressed in transfected cells; host or cells: 1321N1 cells
Assay: PAR2 antagonist activity, calcium flux FLIPR assay (trypsin challenge)
Format: cell-based
Details: 1321N1 cells transfected with the human PAR2 receptor; trypsin (EC50 concentration) challenge; calcium flux FLIPR; read-out: PAR2 IC50
Counter-ions that a name gives are not always drawn.
assayReadout: IC50

Any idea what IC50 was measured for O=C(NCc1ccc2nc[nH]c2c1)N1CCC(Cc2ccccc2)CC1 ?
5 to 20 µM

Any idea what IC50 was measured for N=C(N)c1ccc(CNC(=O)N2CCC(Cc3ccccc3)CC2)cc1F [Example 45, hydrochloride] ?
< 5 µM

Any idea what IC50 was measured for NCc1ccc(CNC(=O)C2CCN(Cc3cccc(F)c3)CC2)cc1 ?
5 to 20 µM

Any idea what IC50 was measured for NCc1ccc(CNC(=O)N2CCC(c3ccccc3)CC2)cc1 [Example 20, hydrochloride] ?
20 to 50 µM

Any idea what IC50 was measured for NCc1ccc(CNC(=O)N2CCCC(Cc3ccccc3)C2)cc1 (stereo not drawn) ?
50 to 100 µM

Any idea what IC50 was measured for CN(C)C(=N)c1ccc(CNC(=O)N2CCC(Cc3ccccc3)CC2)cc1 ?
5 to 20 µM

Any idea what IC50 was measured for O=C(NCc1ccc(C2=NCCN2)cc1)N1CCC(Cc2ccccc2)CC1 ?
20 to 50 µM

Any idea what IC50 was measured for NCc1ccc(CNC(=O)N2CCN(Cc3ccccc3Cl)CC2)cc1 [Example 25, hydrochloride] ?
5 to 20 µM

Any idea what IC50 was measured for O=C(NCc1ccc2nc[nH]c2c1)N1CCC(c2ccccc2)C1 (stereo not drawn) ?
5 to 20 µM

Any idea what IC50 was measured for NCc1ccc(CNC(=O)N2CCC(CCc3ccccc3)CC2)cc1 ?
20 to 50 µM

Any idea what IC50 was measured for NCc1ccc(CNC(=O)N2CCN(C(=O)c3ccccc3)CC2)cc1 ?
20 to 50 µM

Any idea what IC50 was measured for O=C(NCc1ccc2nc[nH]c2c1)N1CCC(Oc2ccc(F)cc2)CC1 ?
20 to 50 µM
